- Test system: NHDF (normal human dermal fibroblasts)
- testSummary: MTT cytotoxicity assay, NHDF control cells, 72 h
- Type: cell-based
- experimentalParameters: free compound in DMSO
IC50 listing for selected compounds.
measurementType: IC50 (µM)

{"compound": "CC(=O)/C=C/c1ccccc1O [Compound (7)]", "system": "NHDF (normal human dermal fibroblasts)", "unitsOfMeasure": "µM", "valueObserved": 61.1}
{"compound": "CC(=O)/C=C/c1ccc(O)cc1 [(9)]", "system": "NHDF (normal human dermal fibroblasts)", "unitsOfMeasure": "µM", "valueObserved": 59.2}
{"compound": "CC(=O)/C=C/c1ccc(O)c(O)c1O [(11)]", "system": "NHDF (normal human dermal fibroblasts)", "unitsOfMeasure": "µM", "valueObserved": 61.7}
